biological target: c-Src SH2; experiment: SH2 binding enrichment of the phosphorylated peptide, bacterial display (enrichment ratio); higher = better substrate or ligand; peptides without Tyr show the background;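 further: peptide library displayed on the E. coli surface as eCPX fusions, selected cells deep-sequenced, score is each peptide's frequency after selection divided by its frequency in the input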
measured endpoint: SH2 binding enrichment

Illustrative cases are given below, each with its answer.
CTTIHYNFMGN [TP53_Y234_C238G_YF] = 0.772
LWKWRYEELKE [CCDC102B_Y299_K298R] = 2.08
ITLKGYNLSNS [GNPTAB_Y728_K732N] = 0.627

a = RLRAAYNLVKR [PFKM_Y103]
b = YIRKDYEACKA [BBS4_Y48]
Task: Looking only at measured SH2 binding enrichment, which entry is lower, a or b ? API: response body contains the label of the selected item.
Output: a

a = GKGGSYSQAAS [HLA-B_Y344_C349S]
b = CTTIHYSFMCN [TP53_Y234_N235S_YF]
Task: Exercise: compare a and b ; which one has the greater SH2 binding enrichment? API: response body contains the label of the selected item.
Output: b
(b: 2.62, a: 0.434)

A = APRKVYDTRDD [ZFPL1_Y215]
B = PFQGAYLKINK [MYO1B_Y967_E969K]
Task: Exercise: compare A and B ; which one has the greater SH2 binding enrichment? API: response body contains the label of the selected item.
Output: B
(B: 1.61, A: 0.372)

Values compiled from the supplement of paper PMC10065799.
